Source: ChEMBL document CHEMBL4689842

Test system: HEK-293T
Method Description: Multiplex assay against HEK293T;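 note: share of the cells with healthy nuclei that show this phenotype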
Assay type: toxicity, cell-based
Recorded Conditions: human, 12 h, 1 µM, compound concentration 1 uM, replicate 2
Returns one of True or False; True when Population Tubulin-Different-Phenotype (%) is >= 20%.

[
  {
    "Compound": "CN(c1cc(C(F)(F)F)nc(OCCC(=O)O)n1)c1cccc2c1CCC2",
    "Assigned Class": "False"
  },
  {
    "Compound": "CCCc1cc(C)[nH]c(=O)c1CNC(=O)c1cc(-c2ccc(N3CCN(C(C)C)CC3)nc2)cc2c1cnn2C(C)C",
    "Assigned Class": "True"
  },
  {
    "Compound": "CC(Cc1ccc(O)c(O)c1)C(C)Cc1ccc(O)c(O)c1 (centres undefined) [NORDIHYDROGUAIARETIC ACID]",
    "Assigned Class": "False"
  },
  {
    "Compound": "CCCCN(CC)c1nc(C)nc2c1c(C)cn2-c1c(C)cc(C)cc1C.Cl",
    "Assigned Class": "False"
  },
  {
    "Compound": "C=CC(=O)Nc1cc(-n2c(=O)ccc3cnc4ccc(-c5ccc(NS(C)(=O)=O)cc5)cc4c32)ccc1C",
    "Assigned Class": "True"
  },
  {
    "Compound": "C[C@@H](Oc1cc(-n2cnc3ccc(CN4CCN(C)CC4)cc32)sc1C(N)=O)c1ccccc1C(F)(F)F",
    "Assigned Class": "True"
  },
  {
    "Compound": "Cc1c(Nc2ccc(S(=O)(=O)N3CCN(C)CC3)cc2F)nc2ccc(Nc3cnn(C4CC4)c3)cn2c1=O",
    "Assigned Class": "True"
  },
  {
    "Compound": "Cc1c(Nc2ccc(S(=O)(=O)N3CCN(C)CC3)cc2F)nc2ccc(-c3cnn(C4CC4)c3)cn2c1=O",
    "Assigned Class": "False"
  },
  {
    "Compound": "N#Cc1cccc(C(=O)Nc2cc(-c3ccccc3)nn2-c2ccccc2)c1",
    "Assigned Class": "True"
  }
]

----------
System: Fibroblast
Method Description: Multiplex assay against human fibroblast
Type: toxicity, cell-based
Recorded Conditions: 24 h, 1 µM, compound concentration 1 uM, replicate 2
Recorded Endpoint: Population Hoechst High Intensity Objects (%)

[
  {
    "Molecule": "Cl.NC[C@@H]1O[C@H](C23CC4CC(CC(C4)C2)C3)Cc2c1ccc(O)c2O",
    "Experimental Target": "Fibroblast",
    "Unit Annotation": "%",
    "Reading": 2
  },
  {
    "Molecule": "CC(/C=C1\\SC(=S)N(CCCC(=O)Nc2ccc(C(=O)O)c(O)c2)C1=O)=C\\c1ccccc1",
    "Experimental Target": "Fibroblast",
    "Unit Annotation": "%",
    "Reading": 6
  },
  {
    "Molecule": "CCCCCNC(=N)N/N=C/c1c[nH]c2ccc(OC)cc12.O=C(O)/C=C\\C(=O)O [TEGASEROD MALEATE]",
    "Experimental Target": "Fibroblast",
    "Unit Annotation": "%",
    "Reading": 5
  },
  {
    "Molecule": "CC[C@@H]1C(=O)N(C)c2cnc(Nc3ccc(C(=O)NC4CCN(C)CC4)cc3OC)nc2N1C1CCCC1 [BI-2536]",
    "Experimental Target": "Fibroblast",
    "Unit Annotation": "%",
    "Reading": 48
  }
]

----------
Tested on: Fibroblast
Method Description: Multiplex assay against human fibroblast
Assay type: toxicity, cell-based
Recorded Conditions: 24 h, 1 µM, compound concentration 1 uM, replicate 2
Recorded Endpoint: Population Membrane Permeable-Phenotype (%)

[
  {
    "Compound": "C=CC(=O)Nc1cc(-n2c(=O)ccc3cnc4ccc(-c5ccc(NS(C)(=O)=O)cc5)cc4c32)ccc1C",
    "Unit Annotation": "%",
    "Reading": 3
  },
  {
    "Compound": "Cl.Cn1c2c(c3ccc(Cl)c(Cl)c31)C(C#N)C1(CCNCC1)NC2=O (configuration not stated)",
    "Unit Annotation": "%",
    "Reading": 9
  },
  {
    "Compound": "CN(c1cc(C(F)(F)F)nc(OCCC(=O)O)n1)c1cccc2c1CCC2",
    "Unit Annotation": "%",
    "Reading": 2
  },
  {
    "Compound": "CC(Cc1ccc(O)c(O)c1)C(C)Cc1ccc(O)c(O)c1 (configuration not stated) [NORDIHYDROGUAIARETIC ACID]",
    "Unit Annotation": "%",
    "Reading": 0
  },
  {
    "Compound": "Cc1c(Nc2ccc(S(=O)(=O)N3CCN(C)CC3)cc2F)nc2ccc(-c3cnn(C4CC4)c3)cn2c1=O",
    "Unit Annotation": "%",
    "Reading": 8
  },
  {
    "Compound": "CC(C)[C@H](CO)Nc1nc(Nc2cccc(Cl)c2)c2ncn(C(C)C)c2n1",
    "Unit Annotation": "%",
    "Reading": 5
  },
  {
    "Compound": "N#Cc1cccc(C(=O)Nc2cc(-c3ccccc3)nn2-c2ccccc2)c1",
    "Unit Annotation": "%",
    "Reading": 1
  },
  {
    "Compound": "CCCCN(CC)c1nc(C)nc2c1c(C)cn2-c1c(C)cc(C)cc1C.Cl",
    "Unit Annotation": "%",
    "Reading": 3
  },
  {
    "Compound": "Cl.NC[C@@H]1O[C@H](C23CC4CC(CC(C4)C2)C3)Cc2c1ccc(O)c2O",
    "Unit Annotation": "%",
    "Reading": 5
  },
  {
    "Compound": "CC(/C=C1\\SC(=S)N(CCCC(=O)Nc2ccc(C(=O)O)c(O)c2)C1=O)=C\\c1ccccc1",
    "Unit Annotation": "%",
    "Reading": 4
  },
  {
    "Compound": "CCCc1cc(C)[nH]c(=O)c1CNC(=O)c1cc(-c2ccc(N3CCN(C(C)C)CC3)nc2)cc2c1cnn2C(C)C",
    "Unit Annotation": "%",
    "Reading": 10
  },
  {
    "Compound": "Cc1c(P(=S)(c2ccccc2)c2ccccc2)n2ccccc2[n+]1C/C=C/c1ccccc1.[Br-]",
    "Unit Annotation": "%",
    "Reading": 9
  },
  {
    "Compound": "N#CCNC(=O)c1ccc(-c2ccnc(Nc3ccc(N4CCOCC4)cc3)n2)cc1",
    "Unit Annotation": "%",
    "Reading": 6
  },
  {
    "Compound": "Cc1ccc(S(=O)(=O)NC2c3ccccc3Oc3ccccc32)cc1",
    "Unit Annotation": "%",
    "Reading": 7
  },
  {
    "Compound": "CCOc1ccn(-c2ccc(F)cc2)c(=O)c1C(=O)Nc1ccc(Oc2ccnc(N)c2Cl)c(F)c1",
    "Unit Annotation": "%",
    "Reading": 10
  },
  {
    "Compound": "CC[C@H](Nc1ncnc2[nH]cnc12)c1nc2cccc(F)c2c(=O)n1-c1ccccc1",
    "Unit Annotation": "%",
    "Reading": 0
  },
  {
    "Compound": "Cc1ccc(NC(=O)Nc2cc(C(F)(F)F)ccc2F)cc1Nc1ccc2c(c1)NC(=O)/C2=C\\c1ccc[nH]1",
    "Unit Annotation": "%",
    "Reading": 55
  }
]

----------
Reported Growth Rate values for a set of molecules
System: Fibroblast
Method Description: Incucyte cell viability with human fibroblast; note: filed as whole numbers so only -1 and 0 and 1 occur
Format: toxicity, cell-based
Recorded Conditions: 18 h, 10 µM, compound concentration 10 uM, replicate number 1, timepoint 18 hours

[
  {
    "Molecule": "COc1ncc(F)cc1CNc1ccc(Cc2c[nH]c3ncc(C)cc23)c(F)n1 [PLX-5622]",
    "Growth Rate": 0
  },
  {
    "Molecule": "COc1cc(OC)c(NC(=O)c2ccc(Cc3cc4c(cc3C)C(C)(C)CCC4(C)C)o2)c(OC)c1",
    "Growth Rate": 1
  },
  {
    "Molecule": "Cc1ccc(NC(=O)Nc2cc(C(F)(F)F)ccc2F)cc1Nc1ccc2c(c1)NC(=O)/C2=C\\c1ccc[nH]1",
    "Growth Rate": 0
  },
  {
    "Molecule": "CC(C)C[C@H](NC(=O)N1CCCCCC1)C(=O)N[C@H](Cc1cn(C)c2ccccc12)C(=O)N[C@H](Cc1ccccn1)C(=O)O",
    "Growth Rate": 1
  },
  {
    "Molecule": "N#CC1(c2ccccn2)CCN(Cc2cc(C(=O)O)c(=O)n3ccccc23)CC1 [MSD-M1PAM]",
    "Growth Rate": 0
  },
  {
    "Molecule": "C/C(=N\\NC(=O)[C@@H]1C(=O)NC[C@H]1c1ccccc1)c1cccc(Br)c1",
    "Growth Rate": 0
  },
  {
    "Molecule": "OCCn1cc(-c2ccc3c(c2)CCC3=NO)c(-c2ccncc2)n1",
    "Growth Rate": 1
  },
  {
    "Molecule": "CCCCCNC(=N)N/N=C/c1c[nH]c2ccc(OC)cc12.O=C(O)/C=C\\C(=O)O [TEGASEROD MALEATE]",
    "Growth Rate": 0
  },
  {
    "Molecule": "O=C(O)[C@H]1[C@H](Cn2nnc3ccccc3c2=O)CC[C@@H]1C(=O)c1ccc(OCCC2CCOCC2)cc1 [BAY-7598]",
    "Growth Rate": 1
  },
  {
    "Molecule": "COc1ccccc1-c1cc(Nc2cccc(CS(N)(=O)=O)c2)ncn1",
    "Growth Rate": 0
  },
  {
    "Molecule": "CCOc1ccn(-c2ccc(F)cc2)c(=O)c1C(=O)Nc1ccc(Oc2ccnc(N)c2Cl)c(F)c1 [BMS-777607]",
    "Growth Rate": 0
  },
  {
    "Molecule": "CCOC(=O)c1ccc(C#Cc2ccc3c(c2)C(C)(C)CCS3)nc1 [TAZAROTENE]",
    "Growth Rate": 1
  },
  {
    "Molecule": "Cc1c(Nc2ccc(S(=O)(=O)N3CCN(C)CC3)cc2F)nc2ccc(Nc3cnn(C4CC4)c3)cn2c1=O",
    "Growth Rate": 0
  },
  {
    "Molecule": "CCOC(=O)CCNc1cc(N2CCc3ccccc3CC2)nc(-c2ccccn2)n1",
    "Growth Rate": 1
  },
  {
    "Molecule": "Cl.Cn1c2c(c3ccc(Cl)c(Cl)c31)C(C#N)C1(CCNCC1)NC2=O (configuration not stated)",
    "Growth Rate": 0
  },
  {
    "Molecule": "CC(C)[C@H](CO)Nc1nc(Nc2cccc(Cl)c2)c2ncn(C(C)C)c2n1 [PURVALANOLA]",
    "Growth Rate": 0
  },
  {
    "Molecule": "CS(=O)(=O)N1CCCC(NC(=O)[C@H](CCC2CCCCC2)NC(=O)c2ccc(CNC(=O)c3cnc4ccccn34)cc2)C1 (some centres not stated) [SR-302]",
    "Growth Rate": 0
  }
]
